- System: Streptococcus pyogenes
- PROTOCOL_DETAILS: The compound has been evaluated for the antibacterial activity against Streptococcus pyogenes EryS 02A1UC1.
- Format: functional
Parameter MIC: see the listing below.

Prompt line: Answer with the recorded MIC for the compound listed here: "CC[C@H]1OC(=O)[C@H](C)[C@@H](O[C@H]2C[C@@](C)(OC)[C@@H](O)[C@H](C)O2)[C@H](C)[C@@H](O[C@@H]2O[C@H](C)C[C@H](N(C)C)[C@H]2O)[C@](C)(O)C[C@@H](C)CN(C)[C@H](C)[C@@H](O)[C@]1(C)O"
Response line: 0.6 µg/mL

Prompt line: Fill in MIC for record "CC[C@H]1OC(=O)[C@H](C)C(=O)[C@H](C)[C@@H](O[C@@H]2O[C@H](C)C[C@H](N(C)C)[C@H]2O)[C@](C)(OC)C[C@@H](C)C(=O)[C@H](C)[C@H]2N(CCCCn3cnc(-c4cccnc4)c3)C(=O)O[C@]12C"
Response line: < 0.02 µg/mL

Prompt line: Provide one value: measured MIC of "CC[C@H]1OC(=O)/C(C)=C\[C@H](C)[C@@H](O[C@@H]2O[C@H](C)C[C@H](N(C)C)[C@H]2O)[C@](C)(OC)C[C@@H](C)C(=O)[C@H](C)[C@H]2N(CCCCn3cnc(-c4cccnc4)c3)C(=O)O[C@]12C"
Response line: 0.02 µg/mL

Prompt line: For the compound "CC[C@H]1OC(=O)/C(C)=C(/OCOCCCc2ccccc2)[C@H](C)[C@@H](O[C@@H]2O[C@H](C)C[C@H](N(C)C)[C@H]2O)[C@](C)(OC)C[C@@H](C)C(=O)[C@H](C)[C@H]2N(CCCCn3cnc(-c4cccnc4)c3)C(=O)O[C@]12C" , give its reported MIC.
Response line: 0.15 µg/mL

###

Item-by-item account of MIC
- System: Streptococcus pneumoniae
- PROTOCOL_DETAILS: The compound has been evaluated for the antibacterial activity against Streptococcus pneumoniae EryRc 030SJ1 strains
- Assay type: functional
Numeric answer only, unit µg/mL assumed.

Previously resolved entries follow.
>>> value_observed("CC[C@H]1OC(=O)C(C)(C)C(=O)[C@H](C)[C@@H](O[C@@H]2O[C@H](C)C[C@H](N(C)C)[C@H]2O)[C@](C)(OC)C[C@@H](C)C(=O)[C@H](C)[C@H]2N(CCCCn3cnc(-c4cccnc4)c3)C(=O)O[C@]12C")
2.5
>>> value_observed("CC[C@H]1OC(=O)/C(C)=C(/OCOCCN(C)C)[C@H](C)[C@@H](O[C@@H]2O[C@H](C)C[C@H](N(C)C)[C@H]2O)[C@](C)(OC)C[C@@H](C)C(=O)[C@H](C)[C@H]2N(CCCCn3cnc(-c4cccnc4)c3)C(=O)O[C@]12C")
10

Kindly consider the entry below.
Prompt line: Report MIC, nothing else, for this molecule: "CC[C@H]1OC(=O)/C(C)=C(/OCOCCCc2ccccc2)[C@H](C)[C@@H](O[C@@H]2O[C@H](C)C[C@H](N(C)C)[C@H]2O)[C@](C)(OC)C[C@@H](C)C(=O)[C@H](C)[C@H]2N(CCCCn3cnc(-c4cccnc4)c3)C(=O)O[C@]12C"
Response line: 20

###

- Test system: Streptococcus pyogenes
- PROTOCOL_DETAILS: The compound has been evaluated for the antibacterial activity against Streptococcus pyogenes EryS 02A1UC1.
- Type: functional
MEASUREMENT_NAME: MIC (µg/mL)
The reply should be a number in µg/mL, with the unit left off.

Illustrative cases are given below, each with its answer.
>>> value_observed("CC[C@H]1OC(=O)/C(C)=C(/OCOCCN(C)C)[C@H](C)[C@@H](O[C@@H]2O[C@H](C)C[C@H](N(C)C)[C@H]2O)[C@](C)(OC)C[C@@H](C)C(=O)[C@H](C)[C@H]2N(CCCCn3cnc(-c4cccnc4)c3)C(=O)O[C@]12C")
0.3
>>> value_observed("CC[C@H]1OC(=O)C(C)(C)C(=O)[C@H](C)[C@@H](O[C@@H]2O[C@H](C)C[C@H](N(C)C)[C@H]2O)[C@](C)(OC)C[C@@H](C)C(=O)[C@H](C)[C@H]2N(CCCCn3cnc(-c4cccnc4)c3)C(=O)O[C@]12C")
0.02
>>> value_observed("CC[C@H]1OC(=O)[C@H](C)[C@@H](O[C@H]2C[C@@](C)(OC)[C@@H](O)[C@H](C)O2)[C@H](C)[C@@H](O[C@@H]2O[C@H](C)C[C@H](N(C)C)[C@H]2O)[C@](C)(OC)C[C@@H](C)C(=O)[C@H](C)[C@@H](O)[C@]1(C)O")
0.008

Here is the next item to consider.
Prompt line: System Streptococcus pyogenes. Read-out MIC. Item CC[C@H]1OC(=O)C(C)(Cl)C(=O)[C@H](C)[C@@H](O[C@@H]2O[C@H](C)C[C@H](N(C)C)[C@H]2O)[C@](C)(OC)C[C@@H](C)C(=O)[C@H](C)[C@H]2N(CCCCn3cnc(-c4cccnc4)c3)C(=O)O[C@]12C (stereo not given in full) . Report value.
Response line: 0.04

###

- Test system: Streptococcus pneumoniae
- PROTOCOL_DETAILS: The compound has been evaluated for the antibacterial activity against Streptococcus pneumoniae EryRc 030SJ1 strains
- Type: functional
Reported MIC values for the following compounds.
Return type: number; implicit unit µg/mL.

>>> value_observed("CC[C@H]1OC(=O)C(C)(Cl)C(=O)[C@H](C)[C@@H](O[C@@H]2O[C@H](C)C[C@H](N(C)C)[C@H]2O)[C@](C)(OC)C[C@@H](C)C(=O)[C@H](C)[C@H]2N(CCCCn3cnc(-c4cccnc4)c3)C(=O)O[C@]12C (some centres undefined)")
5

// switching to the query compound
Prompt line: Provide only the value of recorded MIC for "CC[C@H]1OC(=O)/C(C)=C\[C@H](C)[C@@H](O[C@@H]2O[C@H](C)C[C@H](N(C)C)[C@H]2O)[C@](C)(OC)C[C@@H](C)C(=O)[C@H](C)[C@H]2N(CCCCn3cnc(-c4cccnc4)c3)C(=O)O[C@]12C"
Response line: 10
